Target: UniProt P11712
Sequence (P11712 whole entry): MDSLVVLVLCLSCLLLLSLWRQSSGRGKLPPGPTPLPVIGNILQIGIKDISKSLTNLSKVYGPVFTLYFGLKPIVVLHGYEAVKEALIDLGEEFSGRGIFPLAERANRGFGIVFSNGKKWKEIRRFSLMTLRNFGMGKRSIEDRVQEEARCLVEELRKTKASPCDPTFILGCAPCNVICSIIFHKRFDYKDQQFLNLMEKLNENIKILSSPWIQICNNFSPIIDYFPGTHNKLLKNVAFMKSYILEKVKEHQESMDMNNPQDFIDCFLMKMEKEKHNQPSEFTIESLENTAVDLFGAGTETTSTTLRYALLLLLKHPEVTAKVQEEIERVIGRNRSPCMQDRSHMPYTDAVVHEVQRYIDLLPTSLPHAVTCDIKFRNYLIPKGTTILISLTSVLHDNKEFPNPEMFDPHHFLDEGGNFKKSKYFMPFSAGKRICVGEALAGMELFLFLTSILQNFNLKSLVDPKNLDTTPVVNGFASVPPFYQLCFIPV
pIC50: −log10 of the molar value.
metric: pIC50

# itemSmiles, observedValue
data = [
    ("C[C@H]1CCN1c1nc(N2CC[C@H](CCC(=O)O)C2)c2c(n1)C(F)(F)CC2", "< 4.52"),
]

====

Assay: AUC (0 to infinity) in Beagle dog at 1 mg/kg, iv administered as single dose measured upto 24 hrs by LC-MS/MS analysis
Format: ADME, organism-based, Canis lupus familiaris
Set-up: time < 24 hrs, dose 1 mg/kg, route iv
Conditions: in vivo

# itemSmiles, AUC [ng·h/mL]
data = [
    ("C[C@H]1CCN1c1nc(N2CC[C@H](CCC(=O)O)C2)c2c(n1)C(F)(F)CC2", 5580),
]

====

Molecular target: Cytochrome P450 2D6 (Homo sapiens, UniProt P10635)
Sequence (P10635 whole entry): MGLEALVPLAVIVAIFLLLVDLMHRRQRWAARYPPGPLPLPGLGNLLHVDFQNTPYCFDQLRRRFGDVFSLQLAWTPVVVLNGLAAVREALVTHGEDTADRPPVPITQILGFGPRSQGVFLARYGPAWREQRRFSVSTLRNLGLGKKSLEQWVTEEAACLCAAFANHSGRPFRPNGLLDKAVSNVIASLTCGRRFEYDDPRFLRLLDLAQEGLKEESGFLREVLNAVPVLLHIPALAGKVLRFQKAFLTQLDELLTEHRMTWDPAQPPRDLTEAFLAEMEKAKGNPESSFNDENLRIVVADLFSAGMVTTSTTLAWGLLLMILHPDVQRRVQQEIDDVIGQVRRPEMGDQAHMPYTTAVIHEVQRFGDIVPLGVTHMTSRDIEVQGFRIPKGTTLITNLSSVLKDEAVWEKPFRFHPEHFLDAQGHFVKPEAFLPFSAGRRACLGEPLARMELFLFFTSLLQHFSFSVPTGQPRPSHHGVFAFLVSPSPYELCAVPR
Experiment: Time dependent inhibition of CYP2D6 in human liver microsomes at 10 uM preincubated for 30 mins followed by substrate addition and measured after 15 mins in presence of NADPH by LC-MS/MS analysis
Type: ADME, Microsome

# itemSmiles, IC50
records = [
    ("C[C@H]1CCN1c1nc(N2CC[C@H](CCC(=O)O)C2)c2c(n1)C(F)(F)CC2", "> 10 µM"),
]

====

Experiment: MRT (0 to t) in Beagle dog at 1 mg/kg, iv administered as single dose measured upto 24 hrs by LC-MS/MS analysis
Format: ADME, organism-based, Canis lupus familiaris
Conditions: in vivo

# itemSmiles, unitAbbrev, MRT last at 24 h
rows = [
    ("C[C@H]1CCN1c1nc(N2CC[C@H](CCC(=O)O)C2)c2c(n1)C(F)(F)CC2", "h", 4.61),
]

====

Target: Sodium channel protein type 5 subunit alpha (Homo sapiens, UniProt Q14524)
Sequence (Q14524 whole entry): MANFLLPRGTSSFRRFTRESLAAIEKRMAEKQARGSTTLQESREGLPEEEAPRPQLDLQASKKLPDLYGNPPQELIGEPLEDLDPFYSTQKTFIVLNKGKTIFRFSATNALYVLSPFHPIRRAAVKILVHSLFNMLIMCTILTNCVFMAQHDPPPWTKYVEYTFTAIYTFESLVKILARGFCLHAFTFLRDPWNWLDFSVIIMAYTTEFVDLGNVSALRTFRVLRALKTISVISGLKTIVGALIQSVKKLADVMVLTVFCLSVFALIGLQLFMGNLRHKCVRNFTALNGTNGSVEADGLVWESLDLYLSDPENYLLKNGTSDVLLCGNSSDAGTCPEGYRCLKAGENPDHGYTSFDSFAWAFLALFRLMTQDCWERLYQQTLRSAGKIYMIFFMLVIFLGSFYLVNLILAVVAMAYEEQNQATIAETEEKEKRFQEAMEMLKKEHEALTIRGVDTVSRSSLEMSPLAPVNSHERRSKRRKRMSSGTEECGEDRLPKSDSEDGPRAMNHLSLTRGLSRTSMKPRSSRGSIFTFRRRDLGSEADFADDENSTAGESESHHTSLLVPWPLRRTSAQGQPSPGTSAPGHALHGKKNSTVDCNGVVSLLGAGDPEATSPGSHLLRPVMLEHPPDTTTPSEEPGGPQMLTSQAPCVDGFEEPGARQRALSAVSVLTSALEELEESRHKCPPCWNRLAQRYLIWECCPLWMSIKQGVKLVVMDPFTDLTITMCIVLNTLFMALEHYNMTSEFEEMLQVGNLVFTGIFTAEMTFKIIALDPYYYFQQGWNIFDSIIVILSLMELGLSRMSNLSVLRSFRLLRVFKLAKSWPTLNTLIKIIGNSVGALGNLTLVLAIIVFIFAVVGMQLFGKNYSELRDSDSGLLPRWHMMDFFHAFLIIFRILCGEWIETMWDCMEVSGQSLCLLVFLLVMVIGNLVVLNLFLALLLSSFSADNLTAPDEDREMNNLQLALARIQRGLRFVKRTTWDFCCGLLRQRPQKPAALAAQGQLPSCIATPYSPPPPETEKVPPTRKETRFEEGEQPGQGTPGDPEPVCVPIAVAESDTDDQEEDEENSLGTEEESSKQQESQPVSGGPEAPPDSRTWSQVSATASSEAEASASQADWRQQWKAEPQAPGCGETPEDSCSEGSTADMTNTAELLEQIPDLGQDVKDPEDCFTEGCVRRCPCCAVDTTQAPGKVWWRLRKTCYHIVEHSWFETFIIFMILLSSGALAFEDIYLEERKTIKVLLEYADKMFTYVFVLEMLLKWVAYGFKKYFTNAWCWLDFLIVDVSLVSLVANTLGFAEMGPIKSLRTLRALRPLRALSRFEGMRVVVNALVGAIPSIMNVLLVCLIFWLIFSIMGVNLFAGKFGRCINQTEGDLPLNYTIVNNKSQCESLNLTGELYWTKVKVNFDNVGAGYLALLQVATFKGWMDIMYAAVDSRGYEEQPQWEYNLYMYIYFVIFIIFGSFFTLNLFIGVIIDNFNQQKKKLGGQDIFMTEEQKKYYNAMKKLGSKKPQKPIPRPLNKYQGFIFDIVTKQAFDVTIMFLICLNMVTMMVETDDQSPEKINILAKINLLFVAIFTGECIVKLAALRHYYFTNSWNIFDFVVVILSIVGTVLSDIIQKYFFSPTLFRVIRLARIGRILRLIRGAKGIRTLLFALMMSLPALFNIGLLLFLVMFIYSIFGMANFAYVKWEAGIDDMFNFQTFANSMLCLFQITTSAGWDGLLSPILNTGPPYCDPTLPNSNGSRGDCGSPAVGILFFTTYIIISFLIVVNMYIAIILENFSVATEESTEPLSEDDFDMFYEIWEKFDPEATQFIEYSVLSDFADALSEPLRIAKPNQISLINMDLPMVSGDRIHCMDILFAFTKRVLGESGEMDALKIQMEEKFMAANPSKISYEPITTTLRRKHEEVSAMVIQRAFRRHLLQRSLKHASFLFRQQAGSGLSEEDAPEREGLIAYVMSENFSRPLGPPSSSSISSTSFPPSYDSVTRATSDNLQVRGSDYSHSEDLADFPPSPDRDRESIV
metric: IC50

# itemSmiles, metric, observedValue
measured = [
    ("C[C@H]1CCN1c1nc(N2CC[C@H](CCC(=O)O)C2)c2c(n1)C(F)(F)CC2", "IC50", "> 30 µM"),
]

====

Test: in vitro
Details: human, Caco-2
Description: Efflux ratio of apparent permeability across basolateral to apical membrane over apical to basolateral membrane in human Caco-2 cells

# compound, efflux ratio
measured = [
    ("C[C@H]1CCN1c1nc(N2C[C@@H](CC(=O)O)[C@H](O)C2)cc(C(F)(F)F)c1C#N (racemic)", 218),
    ("C[C@H]1CCN1c1nc(N2CC[C@H](CC(=O)O)C2)c2c(n1)C(F)(F)CC2", 11.2),
    ("C[C@H]1CCN1c1nc(N2CC[C@H](CCC(=O)O)C2)c2c(n1)C(F)(F)CC2", 7.45),
    ("C[C@H]1CCN1c1nc(N2CC(CC(=O)O)C(F)(F)C2)cc(C(F)(F)F)c1C#N (some centres undefined)", 2.48),
    ("C[C@H]1CCN1c1nc(N2C[C@H]3CC[C@H](C(=O)O)[C@H]3C2)c2c(n1)C(F)(F)CC2 (racemic)", 4.54),
    ("O=C(O)CC[C@H]1CCN(c2nc(N3CC[C@@H]3C(F)(F)F)nc3c2CCC3(F)F)C1", 7.81),
    ("C[C@H]1CCN1c1nc(N2CCC3(CC3C(=O)O)C2)cc(C(F)(F)F)c1C#N (some centres undefined)", 1.78),
    ("C[C@H]1CCN1c1nc(N2C[C@H]3CC[C@H](C(=O)O)[C@H]3C2)cc(C(F)(F)F)c1C#N (racemic)", 1.13),
    ("C[C@H]1CCN1c1nc(N2CC[C@H](OCC(=O)O)C2)c2c(n1)C(F)(F)CC2", 19.9),
]
